Each recorded value in this set is attributed to patent US20130330324A1.

- SYSTEM UNDER TEST: T1, Human HER3, endogenous, on human cancer cell lines (human, UniProt P21860 20-1342)
- T1 construct: Endogenous antigen on SK-Br-3, MCF7 or BT-474 cells; also called HER3 on SK-Br-3 cells; HER3 on MCF7 cells
- PROCEDURE DETAILS: FACS titration on SK-Br-3 cells
pEC50: −log10 of the molar value.
OBSERVED PROPERTY: pEC50

• MOR09825 (antibody, human IgG1, kappa, V domains shown, tested as IgG) VH: QVQLVESGGGLVQPGGSLRLSCAASGFTFSSYAMSWVRQAPGKGLEWVSAINSQGKSTYYADSVKGRFTISRDNSKNTLYLQMNSLRAEDTAVYYCARWGDEGFDIWGQGTLVTVSS VL: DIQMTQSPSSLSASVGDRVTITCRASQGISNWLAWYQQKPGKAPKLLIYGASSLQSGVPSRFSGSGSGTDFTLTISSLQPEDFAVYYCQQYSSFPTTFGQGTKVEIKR = 9.08
